system: HDQ-P1; experiment: normalised response (% of control), CellTiter-Glo; higher = more viable cells (100 = DMSO, 0 = benzethonium chloride kill control); conditions: incubation time: 72 h
Task for the reader: assign each of the following molecules its reported normalised response.
Unit % implied. Number only.

Value lookup for normalised response; key = CC1(C)CNc2cc(NC(=O)c3cccnc3NCc3ccncc3)ccc21 [Motesanib] (10000 nM)
92.5

Try this molecule too: C[C@]1(O)C[C@@H](c2nc(-c3ccc4ccc(-c5ccccc5)nc4c3)c3c(N)nccn32)C1 [Linsitinib] (10000 nM)
53.5

Continue with CC1=C2C[C@H]3[C@@H](CC=C4C[C@@H](O)CC[C@@]43C)[C@@H]2CC[C@]12O[C@@H]1C[C@H](C)CN[C@H]1[C@H]2C [Cyclopamine] (10000 nM)
86

Try O=NN(CCCl)C(=O)NCCCl [Carmustine] (10000 nM) next.
96.1
